# Tested on: Hs-578T
# Protocol Summary: NCI tumour cell line growth inhibition, 48 h
Where a name gives a salt, the structure may show the parent alone. Active and inactive are the calls of the source. Cut-off read from the data, not from the text of the source: active = GI50 up to about 1.1 µM and inactive = higher.
Outcomes: active, inactive

[
  {
    "Compound": "C=C1C[C@@H]2CC[C@@]34C[C@H]5O[C@H]6[C@@H](O3)[C@H]3O[C@H](CC[C@@H]3O[C@H]6[C@H]5O4)CC(=O)C[C@@H]3[C@@H](OC)[C@@H](C[C@H](O)CN)O[C@H]3C[C@H]3O[C@@H](CC[C@@H]1O2)C[C@@H](C)C3=C [ERIBULIN MESYLATE]",
    "Assayed Target": "Hs-578T",
    "Assigned Class": "active"
  },
  {
    "Compound": "O=C1CC(Br)c2c(Cl)sc(Cl)c21 (stereo not drawn)",
    "Assayed Target": "Hs-578T",
    "Assigned Class": "inactive"
  },
  {
    "Compound": "CC(=O)NC(CS)C(=O)O (stereo not drawn)",
    "Assayed Target": "Hs-578T",
    "Assigned Class": "inactive"
  }
]
